Please go through the items and note down their inhibition.
# experimental.target: Coagulation factor XI (Homo sapiens) (UniProt P03951)
# Sequence (P03951 19-387 limits assumed): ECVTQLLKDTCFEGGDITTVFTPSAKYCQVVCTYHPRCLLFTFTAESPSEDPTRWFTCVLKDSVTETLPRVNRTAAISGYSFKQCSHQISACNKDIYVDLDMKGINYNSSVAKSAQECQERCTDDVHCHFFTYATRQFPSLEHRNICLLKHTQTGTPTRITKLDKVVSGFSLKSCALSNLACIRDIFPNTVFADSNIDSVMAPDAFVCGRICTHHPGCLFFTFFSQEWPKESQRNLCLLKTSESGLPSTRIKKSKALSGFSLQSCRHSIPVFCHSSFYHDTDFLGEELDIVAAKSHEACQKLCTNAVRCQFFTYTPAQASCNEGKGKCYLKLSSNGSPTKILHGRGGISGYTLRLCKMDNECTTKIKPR
# Sequence (P03951 388-625 limits assumed): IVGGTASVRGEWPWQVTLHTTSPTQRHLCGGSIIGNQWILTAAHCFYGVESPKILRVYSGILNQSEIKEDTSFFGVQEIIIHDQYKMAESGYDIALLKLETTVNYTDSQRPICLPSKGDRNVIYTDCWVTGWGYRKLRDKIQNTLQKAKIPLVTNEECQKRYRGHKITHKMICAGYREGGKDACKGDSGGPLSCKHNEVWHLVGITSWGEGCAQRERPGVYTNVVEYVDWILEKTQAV
# protocol.notes: FXIa protease inhibitors in compound pools, primary screen, biochemical, 10-compound mixtures (AID 680);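 also: each value is inhibition by a whole ten-compound pool holding the compound; 0% = enzyme with no mixture and 100% = wells lacking enzyme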
# test.parameters: purified FXIa, fluorogenic substrate, pooled mixtures; at 5 µM; active compounds read high
In all, about 62,000 compounds went through this assay and about 120 (0.19%) were called active. Many of the other results were omitted from the sample, so actives are more common in it than they were.
Please respond with the number in % and leave the unit unwritten.

Prompt line: # input compound: CCOc1ccc(N=C2SC(C(=O)O)CC(=O)N2C)cc1 (centres undefined) ; wanted: its inhibition
Response line: -15.5

Prompt line: # input compound: CCOC(=O)C1CCN(C(=O)COc2cc(C)c(Br)c(C)c2)CC1 ; wanted: its inhibition
Response line: -1.91

Prompt line: # input compound: CN1CCN(C(=O)c2ccc(NS(=O)(=O)c3ccccc3)cc2)CC1 ; wanted: its inhibition
Response line: 1.27

Prompt line: # input compound: COc1ccc(CN2C(=O)CN=C2Nc2ccc(C)cc2C)cc1 ; wanted: its inhibition
Response line: 9.03

Prompt line: # input compound: N=c1c2c3c(sc2ncn1CCCN1CCOCC1)CCCCC3 ; wanted: its inhibition
Response line: 42.3

Prompt line: # input compound: Cc1ccc(S(=O)(=O)N2CCCC2C(=O)NCc2ccco2)cc1 (centres undefined) ; wanted: its inhibition
Response line: 3.07

Prompt line: # input compound: Cc1c2cn[nH]c(=O)c2c(C)n1Cc1ccc(F)cc1 ; wanted: its inhibition
Response line: 3.31

Prompt line: # input compound: COc1ccc(C)cc1NC(=O)CSc1nc(SC)ns1 ; wanted: its inhibition
Response line: 6.14

Prompt line: # input compound: O=C(c1cccc2ccccc12)N1CCN(c2ccccc2F)CC1 ; wanted: its inhibition
Response line: -1.32

Prompt line: # input compound: CSc1ccc(S(=O)(=O)NCc2ccc(Cl)cc2)cc1 ; wanted: its inhibition
Response line: 7.5

Prompt line: # input compound: CC(C)c1ccc(NC(=O)NC2CCCCC2)cc1 ; wanted: its inhibition
Response line: -11.2

Prompt line: # input compound: O=C1CC2(CCCCC2)Oc2ccc(OCC(=O)N3CCOCC3)cc21 ; wanted: its inhibition
Response line: 4.52

Prompt line: # input compound: CCOc1ccccc1NC(=O)Nc1cc(OC)ccc1OC ; wanted: its inhibition
Response line: 1.07

Prompt line: # input compound: CS(=O)(=O)N1CCCC(C(=O)N2CCOCC2)C1 (centres undefined) ; wanted: its inhibition
Response line: 6.58

Prompt line: # input compound: CCC(=O)c1cc2c(cc1NC(=O)c1cccs1)OCCO2 ; wanted: its inhibition
Response line: 1.74

Prompt line: # input compound: CC(C)(C)c1ccc(C(=O)NCCC(=O)NCc2ccco2)cc1 ; wanted: its inhibition
Response line: 3.48

Prompt line: # input compound: CCSc1nc2c(c(=O)[nH]1)C(c1cccnc1)C(C(=O)OC(C)C)=C(C)N2 (centres undefined) ; wanted: its inhibition
Response line: 7.07

Prompt line: # input compound: O=C(CN1CCN(c2ccccc2F)CC1)c1ccc2c(c1)OCO2 ; wanted: its inhibition
Response line: 4.78

Prompt line: # input compound: CC1Cc2ccccc2N1C(=O)Cn1cnc2ccccc2c1=O (centres undefined) ; wanted: its inhibition
Response line: 3.86

Prompt line: # input compound: COC(=O)c1c(NC(=O)c2cccs2)sc2c1CCCC2 ; wanted: its inhibition
Response line: 5.01

Prompt line: # input compound: CN(CCCC(=O)Nc1nccs1)S(=O)(=O)c1ccc(Cl)cc1 ; wanted: its inhibition
Response line: 2.62

Prompt line: # input compound: CCOC(=O)C1CCN(C(=O)Cc2c(C(=O)O)[nH]c3ccccc23)CC1 ; wanted: its inhibition
Response line: 6.1

Prompt line: # input compound: Cc1csc(NC(=O)NC2(C(F)(F)F)Oc3ccccc3O2)n1 ; wanted: its inhibition
Response line: 0.345

Prompt line: # input compound: CC1COC2C(O1)N(S(C)(=O)=O)CCN2S(C)(=O)=O (centres undefined) ; wanted: its inhibition
Response line: 1.71
